Consider the following compounds and their measured logD readings.
test: physchem; settings: octan-1-ol/water, pH 7.4, LogD7.4
The answer should be a number; do not append a unit.

Worked examples, 8 compounds total:
C1=CCC(c2ccc3ccccc3c2)CNC1 (stereo unspecified)
1.64
COc1cc2ncnc(Nc3ccc(F)cc3)c2cc1OC
3.1
COc1ccc(C(=O)C2CCN(C(=O)c3ccco3)CC2)cc1
2.42
OC1(c2ccccc2)CNCCc2ccccc21 (stereo unspecified)
1.38
Nc1ccc2c(c1)C(=O)C(=O)c1cc(N)ccc1-2
1.72
Cc1cn([C@H]2CCCN(S(=O)(=O)c3ccc(O)c(Oc4cccc(Br)c4)c3)C2)c(=O)[nH]c1=O
2.3
O=C(Nc1cccc(-c2nnn[nH]2)c1)c1cccc2[nH]cnc12
-0.05
CCOC(=O)c1ccc(OC(=O)CCCCCNC(=N)N)cc1 [GABEXATE]
2.41

Request: // lookup logD for CC[C@H](C)C(=O)O[C@H]1C[C@H](O)C=C2C=C[C@H](C)[C@H](CC[C@@H](O)C[C@@H](O)CC(=O)O)[C@H]21 [PRAVASTATIN]
Result: -0.76

Request: // lookup logD for OCC[C@@]1(c2cc3ccccc3o2)CCCNC1
Result: 0.06

Request: // lookup logD for Cc1cnc(Nc2cncc(N[C@@H](C)c3ncc(F)cn3)n2)s1
Result: 1.91
